Where these numbers come from: patent US12491156B2

# assay comment: Aerosol performances by Next Generation Impactor (NGI)
# Format: physicochemical
# setup conditions: Example 4 formulation, Single Dose DPI (RS01 of Plastiape)
assay readout: Delivered Dose (mg)

COC(=O)C1=C(C)N(c2cccc(C(F)(F)F)c2)c2n[nH]c(=O)n2[C@@H]1c1ccc(C#N)cc1CC[N+](C)(C)C: 1.53

* * *

# assay comment: Aerosol performances by Next Generation Impactor (NGI)
# Assay type: physicochemical
# setup conditions: Example 5 formulation, 4 mg single dose, single dose DPI RS01
# Method: The evaluation of the aerosol performances was carried out using the Next Generation Impactor (NGI) according to the conditions reported in the European Pharmacopeia 8.5th Ed 2015, par 2.9.18, pages 309-320. After aerosolization of 3 doses from the inhaler device, the NGI apparatus was disassembled and the amounts of drug deposited in the stages were recovered by washing with a 50:50 v/v water:acetonitrile mixture and then quantified by High-Performance Liquid Chromatography (HPLC). […]
assay readout: Fine Particle Mass (mg)

COC(=O)C1=C(C)N(c2cccc(C(F)(F)F)c2)c2n[nH]c(=O)n2[C@@H]1c1ccc(C#N)cc1CC[N+](C)(C)C: 2.13
